# tgt: Beta-2 adrenergic receptor (Homo sapiens)
# Sequence (P07550 whole entry): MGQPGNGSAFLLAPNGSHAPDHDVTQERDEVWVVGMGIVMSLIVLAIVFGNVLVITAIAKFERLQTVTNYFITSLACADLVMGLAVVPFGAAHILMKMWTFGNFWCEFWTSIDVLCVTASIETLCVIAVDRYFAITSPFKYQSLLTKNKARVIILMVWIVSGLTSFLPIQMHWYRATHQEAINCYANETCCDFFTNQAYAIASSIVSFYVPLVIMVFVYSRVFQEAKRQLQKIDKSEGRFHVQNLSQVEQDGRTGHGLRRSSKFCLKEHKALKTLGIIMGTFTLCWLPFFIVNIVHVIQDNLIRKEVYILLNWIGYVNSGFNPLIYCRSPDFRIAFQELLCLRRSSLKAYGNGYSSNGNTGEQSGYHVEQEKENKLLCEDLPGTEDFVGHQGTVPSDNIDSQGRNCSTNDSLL
# procedureText: ADRB2 activation measured by internalization – cell-based, FAP fluorogen, flow cytometry, cherry pick 1, dose response (AID 588763)
# Type: functional
Activity calls are given as the source filed them.
Consider the following compounds and their measured EC50 readings.

[
  {
    "compound": "Cc1ccccc1N1CCN(c2ncnc3c2cnn3Cc2ccc(Cl)cc2)CC1",
    "result": "4.09 µM (active)"
  },
  {
    "compound": "CCCc1ccc(OCc2nc(-c3ccc(NC(=O)c4ccco4)cc3)no2)cc1",
    "result": "0.161 µM (active)"
  },
  {
    "compound": "Cc1cccc2nc(COc3ccc4ccccc4c3Br)cn12",
    "result": "3.71 µM (active)"
  }
]

Let's switch to this compound now.
Request: Supply reported EC50 belonging to this compound: CC(Oc1ccc(Cl)cc1Cl)c1nc(-c2ccc(NC(=O)c3ccco3)cc2)no1 (centres undefined)
Response: 7.06 µM (active)

---

# tgt: Mu-type opioid receptor (Homo sapiens, UniProt P35372)
# Sequence (P35372 whole entry): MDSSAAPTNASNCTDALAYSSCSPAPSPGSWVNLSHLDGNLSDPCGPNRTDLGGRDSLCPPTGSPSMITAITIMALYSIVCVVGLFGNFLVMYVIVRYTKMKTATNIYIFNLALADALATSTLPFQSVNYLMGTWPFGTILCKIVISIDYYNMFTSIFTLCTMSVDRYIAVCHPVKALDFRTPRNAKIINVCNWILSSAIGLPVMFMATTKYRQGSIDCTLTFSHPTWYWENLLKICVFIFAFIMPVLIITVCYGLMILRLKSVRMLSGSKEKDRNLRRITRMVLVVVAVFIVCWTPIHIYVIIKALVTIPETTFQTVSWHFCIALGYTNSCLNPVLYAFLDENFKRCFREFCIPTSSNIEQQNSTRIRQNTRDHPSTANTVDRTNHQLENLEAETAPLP
# procedureText: Counterscreen for agonists of heterodimerization of the mu 1 (OPRM1) and delta 1 (OPRD1) opioid receptors: Luminescence-based cell-based high throughput dose response assay to identify agonists of OPRM1 homodimerization.
# Format: functional
Active and inactive are the calls of the source.
quantityName: EC50

[
  {
    "compound": "Brc1ccc(NC2=Nc3ccccc3CC2)cc1",
    "tgt": "Mu-type opioid receptor (Homo sapiens, UniProt P35372)",
    "quantityName": "EC50",
    "result": "52.1 µM (inactive)"
  },
  {
    "compound": "O=C1C=C(c2c(O)ccc3ccccc23)c2ccccc2C1=O",
    "tgt": "Mu-type opioid receptor (Homo sapiens, UniProt P35372)",
    "quantityName": "EC50",
    "result": "> 92.4 µM (inactive)"
  },
  {
    "compound": "COC(=O)c1cc2c(n1S(=O)(=O)c1ccc(C)cc1)C(=O)C(=O)c1[nH]cc(C(=O)OCc3ccccc3)c1-2",
    "tgt": "Mu-type opioid receptor (Homo sapiens, UniProt P35372)",
    "quantityName": "EC50",
    "result": "> 92.4 µM (inactive)"
  }
]

Could you now look at the following compound, please?
Request: Please report the measured EC50 for COc1ccc(C(C(=O)NC2CCCCC2)N(C(=O)Cc2c[nH]c3ccccc23)c2ccc(NC(C)=O)cc2)cc1OC (centres undefined)
Response: > 92.5 µM (inactive)

---

Collected CC50 values appear next to each entry.
# procedureText: microbe, parasite or virus in culture
# Type: functional
# assayConditions: Mycobacterium tuberculosis
Active and inactive are the calls of the source.

Examples with their reported CC50 follow.
[
  {
    "compound": "CC(C)(C)C(=O)N1CCN(c2ccc(NC(=O)c3ccc([N+](=O)[O-])o3)cc2)CC1",
    "quantityName": "CC50",
    "result": "2.96 µM (active)"
  },
  {
    "compound": "N=C(N)N/N=C1C=C/C(=N\\NC(N)=S)C=C\\1",
    "quantityName": "CC50",
    "result": "> 40 µM (active)"
  },
  {
    "compound": "C=C(C)CSc1cc(C)c(C#N)c2nc3ccccc3n12",
    "quantityName": "CC50",
    "result": "10.1 µM (active)"
  },
  {
    "compound": "O=C(NNc1nc2ccccc2s1)c1ccccc1F",
    "quantityName": "CC50",
    "result": "> 40 µM (active)"
  }
]

Request: Give the measured CC50 for CC1(C)c2[nH]c3ccccc3c2C[C@@H]2C(=O)N(Cc3ccccc3F)C(=O)N21
Response: > 40 µM (active)

Request: Look up and report measured CC50 for this entry: N#CC(c1cccc(Cl)c1)c1ccc2c(C(F)(F)F)cc(C(F)(F)F)nc2n1 (stereo unspecified)
Response: < 0.16 µM (active)
